Sourced from the supplement of paper PMC10567573

Reported protein stability index by item:
B1: RHOBTB1 (parent)
chain: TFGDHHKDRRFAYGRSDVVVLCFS

- Variants of: B1
- testProtocol: protein stability index of a GFP-peptide fusion (GPS, HEK-293T) (PSI 1-6); higher = more stable;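 further: lentivirally expressed fusions sorted by FACS into six bins by GFP to DsRed ratio, PSI derived from sequencing read proportions per bin multiplied by bin number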
- setupConditions: c terminus: a fixed tail appended

TFGDHHQDRRFAYGRSDVVVLCFS
2.38
TPGDHHKDRRFAYGRSDVVVLCFS
3.35
TFGDHHKDRRFAYGRNDVVVLCFS
2.38

## Input Would you mind telling me what protein stability index value was observed for TFGDHHKDRRFAYGRSDPVVLCFS ?
## Output 1.58

## Input Name the recorded protein stability index for TFGDHHKDRRFVYGRSDVVVLCFS .
## Output 1.95

## Input Tell me the measured protein stability index of TFGDHHKDRRFAYGRSDVVVVCFS , please.
## Output 2.86

## Input Please report the recorded protein stability index for TFPDHHKDRRFAYGRSDVVVLCFS .
## Output 2.48

## Input Looking for the measured protein stability index of TFGDHHKDRRFAYGRSDVEVLCFS , can you help?
## Output 1.88

## Input Which protein stability index reading was recorded for the variant TFGDHHFDRRFAYGRSDVVVLCFS ?
## Output 3.68

## Input I have this variant here, TFGDHHKDRRFAYGRSDVVVNCFS , and I need its recorded protein stability index.
## Output 2.44
